FYI, the data here is from PubChem BioAssay AID463173.

- Test system: Wild type
- assay name: S. aureus survival, RN4220 and DeltatarO strains – OD600, teichoic acid synthesis inhibitors, primary screen (AID 463173)
- condition summary: S. aureus RN4220 wild type/DeltatarO growth, OD600, 18 h, hits give low values, screened at 18.75 µg/mL (by protocol)
The campaign covered roughly 52,000 compounds. About 1,700 (3.3%) were called active. What follows is part of a selection rich in actives, with near analogues and random picks from the rest.
measure name: survival

// known answers, use as guide
compound: CCN(CC)C(=O)Cn1c(=O)sc2ccccc21
survival: 105% (inactive)
--
compound: CCCN(CCC)CCNC(=O)C1CCN(c2nc3ccc(CC)cc3s2)CC1
survival: 67% (inactive)
--
compound: Cc1ccc(S(=O)(=O)C(CNC(=O)c2ccc(F)c(F)c2)c2ccco2)cc1 (stereo not drawn)
survival: -6% (active)
--
compound: O=C(Nc1ncn[nH]1)C(F)(F)C(F)F
survival: 108% (inactive)
--
compound: CC(C)(C)OC(=O)N1CCC(c2nnc(SCc3ccccc3)o2)CC1
survival: 83% (inactive)

Input line: Reported survival for `Cc1ccc(O)c(C2=Nc3ccccc3N=C(c3cccc(F)c3)C2)c1` : what is it?
Output line: 139% (inactive)

Input line: Reported survival for COc1ccc(C(=O)NCC(c2ccco2)S(=O)(=O)c2ccc(F)cc2)cc1 (stereo not drawn) : what is it?
Output line: 74% (inactive)
